The reported numbers originate from the supplement of paper PMC12042874.

assay explanation: amyloid nucleation score (Sup35N fusion, yeast selection) (log enrichment); library NNK1; higher = more nucleation; inactive = no reads after selection;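 further: zero at mode of non-aggregating sequences after 7 days selection at 30°C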
Listed sequences paired with reported amyloid nucleation score
Answer with the value's number alone.

Please give the documented amyloid nucleation score of SYRIMPLMCILNCLFNCIYI 4.8

Please give the documented amyloid nucleation score of FVVRCDYVVLTLDSGDRSYV 3.37

* * *

assay explanation: amyloid nucleation score (Sup35N fusion, yeast selection) (log enrichment); library NNK1; higher = more nucleation; inactive = no reads after selection
Listed substances paired with reported amyloid nucleation score
Answer with the value's number alone.

Some solved entries appear below for comparison.
Please give the documented amyloid nucleation score of SVLSSLVSEISGVVCLVLGH -0.214

Please give the documented amyloid nucleation score of LFGSEVTWYLTSGCDKPFLH 0.087

Please give the documented amyloid nucleation score of YSGPGAQFIAMLNKLWCTAH 1.23

Please give the documented amyloid nucleation score of KETLGIQ 1.19

Please give the documented amyloid nucleation score of WVVVDTLVRTGGCCWGYWKT 1.91

Further cases:
Please give the documented amyloid nucleation score of YYLSLMYSTLYRTKIFWARE -0.077

Please give the documented amyloid nucleation score of GVCFLAR 0.707

Please give the documented amyloid nucleation score of LYVDGGPCPTAELGQRSYEK -0.17

Please give the documented amyloid nucleation score of LQLWLMDGSSRGRWV 0.12

Please give the documented amyloid nucleation score of SCILFY 1.75

* * *

assay explanation: amyloid nucleation score (Sup35N fusion, yeast selection) (log enrichment); library NNK3; higher = more nucleation; inactive = no reads after selection
readout name: amyloid nucleation score

Some solved entries appear below for comparison.
Please give the documented amyloid nucleation score of YVPIRSFVGEVLGSGDR 0.157

Please give the documented amyloid nucleation score of RQGPIYPWVLC inactive

Please give the documented amyloid nucleation score of LIGSYICYAVGLMVTLNNWW inactive

Please give the documented amyloid nucleation score of IYGNSFPEGIHRTGWESYHR inactive

Please give the documented amyloid nucleation score of LSYSAGEIRCVGSCWANESL inactive

Please give the documented amyloid nucleation score of NGYPHLIQHYLVNAG inactive

Please give the documented amyloid nucleation score of YKRGFMKRYANAEASFMSYW inactive

Please give the documented amyloid nucleation score of LFFRLHYS inactive

Further cases:
Please give the documented amyloid nucleation score of WGSEFIDTKFA inactive

Please give the documented amyloid nucleation score of RLRLGAAGRQGSEVVYNWSM 1.23

* * *

assay explanation: amyloid nucleation score (Sup35N fusion, yeast selection) (log enrichment); library NNK1; higher = more nucleation; inactive = no reads after selection
Classes are defined on amyloid nucleation score with ranges lo (below 0.1), mid (0.1 to below 0.9), hi (0.9 or more)

GET /class?item= LNRSTDAFWNKIRTG hi

GET /class?item= MNCLTSRILNVLIGSGCN hi

GET /class?item= KNVSLRYILAYCRHYKLTHG mid

GET /class?item= GLVSQPFWCSYKCGGHNHKG mid

GET /class?item= HMNVPIDRSLGSFFFAKVMK mid

Further cases:
GET /class?item= TLKHEQAREGFFAM lo

GET /class?item= FLYWLVDKLG mid

GET /class?item= VSLINRRYCPATVFGF mid

GET /class?item= HNYVGDTLGVMSCWPTTRFP lo

* * *

assay explanation: amyloid nucleation score (Sup35N fusion, yeast selection) (log enrichment); library NNK1; higher = more nucleation; inactive = no reads after selection
Classes are defined on amyloid nucleation score with ranges low end: < 0.1; middle: ≥ 0.1 and < 0.4; high end: ≥ 0.4

GET /class?item= RFSMFRQFRSDLGCFPIMVP middle

GET /class?item= ARTRVLMKQVQGFKSFTILH middle

Further cases:
GET /class?item= GHYVDLKSLYPPMTCAMACM low end

GET /class?item= GCLFICSMRELYKSASSTMR middle

GET /class?item= NQVENTWCMSLRLFSYSHTL high end

GET /class?item= FYRFDQRNLEDVGGGMYGSS middle

* * *

assay explanation: amyloid nucleation score (Sup35N fusion, yeast selection) (log enrichment); library NNK1; higher = more nucleation; inactive = no reads after selection
Given measured amyloid nucleation score, output Yes if it is greater than or equal to 0.3 and No if not.

Consider the following illustrative entries.
Is reported amyloid nucleation score greater than or equal to 0.3 here: ILSDVDVCGYLRFMFWSMSD Yes

Is reported amyloid nucleation score greater than or equal to 0.3 here: ARYGVSGHAYDTNPRRYFGQ No

Is reported amyloid nucleation score greater than or equal to 0.3 here: YRCCFLKNNPAWVQFSLRLR No

Is reported amyloid nucleation score greater than or equal to 0.3 here: EICSSESAVQKHNSPWGSDY No

Is reported amyloid nucleation score greater than or equal to 0.3 here: FISCCARIFTTCGIAD Yes

Is reported amyloid nucleation score greater than or equal to 0.3 here: KSMHEVWWLLQSEGERDL Yes

Is reported amyloid nucleation score greater than or equal to 0.3 here: SNTICQVGASREEPSCGTQW Yes

Is reported amyloid nucleation score greater than or equal to 0.3 here: MQVVVYKYLTMYQR Yes

Is reported amyloid nucleation score greater than or equal to 0.3 here: NPFYKT No

Is reported amyloid nucleation score greater than or equal to 0.3 here: NRFYYKARCRQVGHCT Yes

Further cases:
Is reported amyloid nucleation score greater than or equal to 0.3 here: YFDLWALSVLCCFFGVNSPF Yes

Is reported amyloid nucleation score greater than or equal to 0.3 here: SVNKSSKVFTELANVHERAL No

Is reported amyloid nucleation score greater than or equal to 0.3 here: NFSFLGFLSRYGCLFQVSS Yes

* * *

assay explanation: amyloid nucleation score (Sup35N fusion, yeast selection) (log enrichment); library NNK1; higher = more nucleation; inactive = no reads after selection
Given measured amyloid nucleation score, output TRUE if it is greater than or equal to 0.03 and FALSE if not.

Is reported amyloid nucleation score greater than or equal to 0.03 here: ATGTSWYVPGRVGLCGYWLI FALSE

Is reported amyloid nucleation score greater than or equal to 0.03 here: NDNGVMLVLCEGMY FALSE

Is reported amyloid nucleation score greater than or equal to 0.03 here: HVVFTKMCSNTTET FALSE

Is reported amyloid nucleation score greater than or equal to 0.03 here: SRSIRSYDPWMVCMSMWLSD TRUE

Is reported amyloid nucleation score greater than or equal to 0.03 here: GRSLAFTSYCLMKGLTSVSV FALSE

Further cases:
Is reported amyloid nucleation score greater than or equal to 0.03 here: PRVQRPPKVRTAELTTGPSQ FALSE

Is reported amyloid nucleation score greater than or equal to 0.03 here: FALGCF FALSE

Is reported amyloid nucleation score greater than or equal to 0.03 here: YVFSCTGLNR FALSE

Is reported amyloid nucleation score greater than or equal to 0.03 here: VVLLQLQCHEPFYSPKPQQA FALSE

Is reported amyloid nucleation score greater than or equal to 0.03 here: AFRFHQHMACREL TRUE

Is reported amyloid nucleation score greater than or equal to 0.03 here: NLCFLITNYINRLNFYNFVV TRUE

Is reported amyloid nucleation score greater than or equal to 0.03 here: NNSLKCCLFLMSNLKSSRVN TRUE

Is reported amyloid nucleation score greater than or equal to 0.03 here: MLLACPHLTGYGVILIASIA FALSE

Is reported amyloid nucleation score greater than or equal to 0.03 here: FVLHCCRLRGHTSSSHWLGA TRUE

Is reported amyloid nucleation score greater than or equal to 0.03 here: TMCCTLDARRLLLSMADFYC TRUE

* * *

assay explanation: amyloid nucleation score (Sup35N fusion, yeast selection) (log enrichment); library NNK2; higher = more nucleation; inactive = no reads after selection
Classes are defined on amyloid nucleation score with ranges interval 1 (below -0.04), interval 2 (-0.04 to below 1), interval 3 (1 or more)

Consider the following illustrative entries.
GET /class?item= DSNMRMIA interval 2

GET /class?item= RFHRYTILLLLTPEWTEHAI interval 2

GET /class?item= SRIMALTMCFYTNRGRELVN interval 1

GET /class?item= MWIYNY interval 3

GET /class?item= RSCATFIFVMS interval 3

GET /class?item= NRYTNGPNF interval 1

Further cases:
GET /class?item= VRTWESIVCCI interval 3

GET /class?item= GRCYDFCHFYKQGRYSLGWV interval 1

GET /class?item= IAAYLLNSQYDSCNVDEKRH interval 1

GET /class?item= ILLRWNSTSTEVHHVGPTWV interval 2

GET /class?item= FFRLIGDGGYCCFPCKSDVR interval 3

GET /class?item= NDTRSLLML interval 2

GET /class?item= YISRILYHNGKSDRDGQRDY interval 1

GET /class?item= DVFVRSRGKGRFMGSRDNWA interval 2

GET /class?item= WVGYLRPKKESLCLGFEDSK interval 3

GET /class?item= IRECLVRSATSFLLDHKRRC interval 1

GET /class?item= MSWVVIQFTINIFRHKTF interval 3

GET /class?item= FYKLVAGNLANPCANRTCYL interval 2

GET /class?item= LFCSYPNTASRKLAIGIVAS interval 2

GET /class?item= CSNADFDSRVFTDANMIFPK interval 3

GET /class?item= CHMDFERFRWLKFSLFCSLH interval 1

GET /class?item= IRWAQTFILLFVCSSARPTQ interval 2

GET /class?item= SQIRGESSYYCLPSFSLLFF interval 3

GET /class?item= KTYDGGFKRNRDEVGPKPGE interval 1

GET /class?item= KDLEFSISLMKVPNIWWHYR interval 3

GET /class?item= YRLVHNSKREPGWRSCEWDH interval 2

GET /class?item= GAAHDSYMNRWLITWNSKCK interval 1
